# MEASUREMENT TARGET: T1, cynomolgus CD3εδ-Fc heterodimer (Cy CD3ε Fc / CD3δ Fc-HIS) (cynomolgus, UniProt Q95LI8 22-100)
# T1 construct: range 22-100; Produced in HEK 293 cells; also called Cy CD3εδ Fc heterodimer; not shown: Fc-HIS part of CD3δ Fc-HIS
# T1 sequence (chain, as listed by the source mutant, form in doubt, chain 1 of 2): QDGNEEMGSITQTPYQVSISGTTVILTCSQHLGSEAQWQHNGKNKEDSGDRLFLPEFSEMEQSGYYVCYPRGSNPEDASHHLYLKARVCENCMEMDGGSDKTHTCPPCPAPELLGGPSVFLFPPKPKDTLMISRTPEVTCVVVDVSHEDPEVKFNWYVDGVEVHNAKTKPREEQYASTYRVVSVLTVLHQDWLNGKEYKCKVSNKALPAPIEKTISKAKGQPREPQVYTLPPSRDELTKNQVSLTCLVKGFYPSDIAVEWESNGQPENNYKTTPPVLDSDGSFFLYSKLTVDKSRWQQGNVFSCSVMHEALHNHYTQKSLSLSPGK
# T1 sequence (Q95LI8 22-100, stated change not applied, form in doubt, chain 2 of 2): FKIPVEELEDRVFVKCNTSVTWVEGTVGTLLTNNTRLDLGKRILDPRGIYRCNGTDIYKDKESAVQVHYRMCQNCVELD
# ASSAY EXPLANATION: BLI (Octet), yeast-produced IgG on AHC sensor, CD3εδ-Fc 100 nM in solution, pH 7.4
Would you mind telling me the reported Kd of each entry?
Numbers only, in µM.

ADI-74965 (Antibody No. 3), human IgG1 (antibody, V domains shown, Tested as human IgG1 (yeast-produced aglycosylated, or CHO-produced)) VH: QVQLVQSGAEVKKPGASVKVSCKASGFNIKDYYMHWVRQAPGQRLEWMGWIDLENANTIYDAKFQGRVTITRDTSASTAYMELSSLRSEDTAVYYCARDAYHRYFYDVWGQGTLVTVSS VL: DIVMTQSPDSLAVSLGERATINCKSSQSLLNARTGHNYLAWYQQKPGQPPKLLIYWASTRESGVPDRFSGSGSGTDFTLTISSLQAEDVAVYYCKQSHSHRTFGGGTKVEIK
0.0218
ADI-79844 (Antibody No. 10), human IgG1 (antibody, V domains shown, Tested as yeast-produced aglycosylated human IgG1) VH: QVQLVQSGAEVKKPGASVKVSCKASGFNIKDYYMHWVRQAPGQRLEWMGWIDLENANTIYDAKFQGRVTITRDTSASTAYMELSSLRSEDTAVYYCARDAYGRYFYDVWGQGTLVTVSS VL: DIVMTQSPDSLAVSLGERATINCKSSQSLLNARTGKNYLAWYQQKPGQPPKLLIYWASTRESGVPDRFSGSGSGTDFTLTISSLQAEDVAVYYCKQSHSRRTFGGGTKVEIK
0.00542

We next turn to a different binder, shown below.
Quick one: give measured Kd for ADI-74968 (Antibody No. 6), human IgG1 (antibody, V domains shown, Tested as human IgG1 (yeast-produced aglycosylated, or CHO-produced)) VH: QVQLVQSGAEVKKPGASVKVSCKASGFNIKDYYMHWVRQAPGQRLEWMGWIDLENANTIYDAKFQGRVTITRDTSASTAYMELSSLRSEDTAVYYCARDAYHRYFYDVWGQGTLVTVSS VL: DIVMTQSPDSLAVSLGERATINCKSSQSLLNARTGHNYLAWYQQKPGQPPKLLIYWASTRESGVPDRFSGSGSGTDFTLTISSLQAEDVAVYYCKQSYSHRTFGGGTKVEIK 0.0205

Data provenance is patent US20260152557A1.
